Reference for the values: ChEMBL document CHEMBL1155531

Progesterone receptor (Homo sapiens, UniProt P06401): reported pIC50 for various compounds.
Sequence (P06401 whole entry): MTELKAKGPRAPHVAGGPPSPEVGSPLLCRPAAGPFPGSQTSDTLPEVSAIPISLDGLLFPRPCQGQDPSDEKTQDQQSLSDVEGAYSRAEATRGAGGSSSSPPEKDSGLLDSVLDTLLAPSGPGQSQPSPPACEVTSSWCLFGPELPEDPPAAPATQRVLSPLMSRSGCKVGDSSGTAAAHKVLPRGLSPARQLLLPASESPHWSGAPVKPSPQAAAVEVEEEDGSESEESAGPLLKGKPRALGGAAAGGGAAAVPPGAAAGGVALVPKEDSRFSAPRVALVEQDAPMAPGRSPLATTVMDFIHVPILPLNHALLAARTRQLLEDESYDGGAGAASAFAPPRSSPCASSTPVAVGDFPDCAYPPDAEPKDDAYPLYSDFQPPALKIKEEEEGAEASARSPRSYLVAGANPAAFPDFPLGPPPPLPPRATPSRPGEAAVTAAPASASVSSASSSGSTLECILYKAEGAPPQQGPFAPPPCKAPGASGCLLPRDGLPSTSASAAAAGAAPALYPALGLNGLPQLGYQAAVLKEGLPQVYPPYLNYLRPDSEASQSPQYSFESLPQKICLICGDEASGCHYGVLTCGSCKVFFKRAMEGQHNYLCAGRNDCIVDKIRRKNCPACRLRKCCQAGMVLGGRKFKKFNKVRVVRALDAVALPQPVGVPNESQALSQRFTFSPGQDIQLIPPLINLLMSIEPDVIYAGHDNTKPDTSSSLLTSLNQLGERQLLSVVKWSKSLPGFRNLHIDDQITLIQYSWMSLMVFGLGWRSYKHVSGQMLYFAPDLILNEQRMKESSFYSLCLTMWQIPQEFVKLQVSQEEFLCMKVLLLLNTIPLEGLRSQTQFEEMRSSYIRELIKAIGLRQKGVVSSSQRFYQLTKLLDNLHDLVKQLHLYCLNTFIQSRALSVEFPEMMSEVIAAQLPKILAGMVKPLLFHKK
pIC50 is defined as minus the log10 of a concentration measured in mol/L.

[
  {
    "QUERY_SMILES": "Oc1cccc(-c2ccc3c(cnn3-c3ccc(F)cc3)c2)c1",
    "pIC50": 5.60
  }
]

Lab note: need pIC50 for "CN(c1ccccc1)S(=O)(=O)c1ccc(-c2ccc3c(cnn3-c3ccc(F)cc3)c2)c(C(F)(F)F)c1" on Progesterone receptor (Homo sapiens, UniProt P06401), anyone have it?
6.10

====

ASSAY_PROTOCOL: Plasma clearance in CD rat at 1 mg/kg, po and 1 mg/kg, iv
Assay type: ADME, organism-based
OBSERVATION_TYPE: clearance (mL/min/kg)
API: value field is a number in mL/min/kg; no unit string.

clearance lookup needed for "O=S(=O)(Cc1ccccc1)Nc1ccc(-c2ccc3c(cnn3-c3ccc(F)cc3)c2)c(C(F)(F)F)c1" , thanks.
8
